Measured T/C accompanies every entry in the list below.
Tested on: P388 leukemia ip, CD2F1 mice, survival T/C
Test: NCI In Vivo Anticancer Drug Screen. Data for tumor model P388 Leukemia (intraperitoneal) in CD2F1 (CDF1) mice
Settings: endpoint: median survival time; dose: 100.0 mg/kg/injection; schedule: Q01DX009 (ip); vehicle: saline with Tween-80; higher = longer survival
Inconclusive results and toxic doses are left out.

Example entries and their recorded answers appear below.
{"MOLECULE": "CC(C)(CO)COC1OCN(C(C)(C)C)CC1(C)C (stereo not given)", "T/C": "110 % of control"}
{"MOLECULE": "C=CCNC(=S)NCC", "T/C": "100 % of control"}
{"MOLECULE": "O=[N+]([O-])c1cccc(C(O)(C(F)(F)F)C(F)(F)F)c1", "T/C": "106 % of control"}

Prompt: State the recorded T/C for this entry: O=S1(c2ccccc2)=NC(Nc2ccccc2)=Nc2ccccc21 (stereo not given)
Response: 101 % of control

Prompt: Again, but for CCS/C(C#N)=C/c1ccccc1
Response: 115 % of control

Prompt: Next entry: N#Cc1ccc(=O)[nH]c1O
Response: 100 % of control

Prompt: For COC1/C=C/OC2(C)Oc3c(C)c(O)c4c(O)c(c(/C=N/N5C(C)CN(Cc6ccc([N+](=O)[O-])cc6)CC5C)c(O)c4c3C2=O)NC(=O)/C(C)=C\C=C\C(C)C(O)C(C)C(O)C(C)C(OC(C)=O)C1C (stereo not given) then?
Response: 119 % of control

Prompt: And what about the molecule CCCCOCC(=O)OCCCC ?
Response: 109 % of control

Prompt: Field entry: CC(=O)OC1CC2CCC1(C)C2(C)C (stereo not given)
Response: 104 % of control

Prompt: Another molecule to look at: CC(=O)c1ccc(N=NN(C)c2ccc(C(C)=O)cc2)cc1
Response: 107 % of control

====

System: P388 leukemia ip, CD2F1 mice, survival T/C
Test: NCI In Vivo Anticancer Drug Screen. Data for tumor model P388 Leukemia (intraperitoneal) in CD2F1 (CDF1) mice
Details: endpoint: median survival time; dose: 12.5 mg/kg/injection; schedule: Q01DX009 (ip); vehicle: saline; higher = longer survival
Toxic doses and inconclusive results are not listed.
Each entry below lists one item and its recorded T/C value.

{"MOLECULE": "C1=CC2CCC1C1CSCC21 (stereo unspecified)", "EXPERIMENTAL_TARGET": "P388 leukemia ip, CD2F1 mice, survival T/C", "REPORTED_ENDPOINT": "T/C", "EXPERIMENTAL_RESULT": "98 % of control"}
{"MOLECULE": "CCSC1C(=O)N(C)C(SCC)C(=O)N1C (stereo unspecified)", "EXPERIMENTAL_TARGET": "P388 leukemia ip, CD2F1 mice, survival T/C", "REPORTED_ENDPOINT": "T/C", "EXPERIMENTAL_RESULT": "103 % of control"}
{"MOLECULE": "NC(CSCCc1ccncc1)C(=O)O (stereo unspecified)", "EXPERIMENTAL_TARGET": "P388 leukemia ip, CD2F1 mice, survival T/C", "REPORTED_ENDPOINT": "T/C", "EXPERIMENTAL_RESULT": "105 % of control"}
{"MOLECULE": "CSCCC(N)C(=O)OCN1C(=O)C2C3C=CC(C2C1=O)C1C2C(=O)N(COC(=O)C(N)CCSC)C(=O)C2C31 (stereo unspecified)", "EXPERIMENTAL_TARGET": "P388 leukemia ip, CD2F1 mice, survival T/C", "REPORTED_ENDPOINT": "T/C", "EXPERIMENTAL_RESULT": "117 % of control"}
{"MOLECULE": "CCCCCCCCCCCC[N+]1(CC)CCOCC1", "EXPERIMENTAL_TARGET": "P388 leukemia ip, CD2F1 mice, survival T/C", "REPORTED_ENDPOINT": "T/C", "EXPERIMENTAL_RESULT": "101 % of control"}

Next:
Prompt: Missing value: T/C, P388 leukemia ip, CD2F1 mice, survival T/C, entry C=CC(=NC(C)(C)C)Nc1c(Cl)cccc1Cl . Fill in?
Response: 109 % of control
